Tgt: T1, human GPC3-his tag protein (human, UniProt P51654 25-559, limits assumed)
T1 construct: recombinant soluble antigen used as analyte in all Biacore runs; also called recombinant GPC3 protein; rhGPC3-His; not shown: His tag
Experiment description: SPR Biacore 8K, mAb captured, affinity ranking
Description: To evaluate antigen binding activity, the chimeric antibody's affinity was measured by Biacore 8K. A serial dilution of human GPC3-his tag protein was injected over captured chimeric antibody 52H5D3B8-6 #-VH+VL for 3 mins at a flow rate of 30 μl/min. The antigen was allowed to dissociate for 720 s. Among the multi detection doses, two concentrations with most close affinity to the chimeric antibody's affinity were chosen for the 16 humanized antibodies' affinity detection.
pKd: −log10 of the molar value.
Measure name: pKd

Binder	Endpoint value
52H5D3B8-6#-VH1+VL1 (antibody, V domains shown, humanized) VH: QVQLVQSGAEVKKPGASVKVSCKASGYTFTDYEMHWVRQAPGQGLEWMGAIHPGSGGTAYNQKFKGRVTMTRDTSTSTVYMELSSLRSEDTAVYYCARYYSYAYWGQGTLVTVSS VL: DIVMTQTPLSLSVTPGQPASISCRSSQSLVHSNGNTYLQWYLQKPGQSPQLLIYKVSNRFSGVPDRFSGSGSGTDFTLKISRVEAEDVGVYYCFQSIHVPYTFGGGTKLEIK	8.71
52H5D3B8-6# chimeric mAb (antibody, V domains shown, CDR3 mutant of the 52H5D3B8 chimeric mAb (human IgG1); also called 52H5D3B8-6#-VH+VL) VH: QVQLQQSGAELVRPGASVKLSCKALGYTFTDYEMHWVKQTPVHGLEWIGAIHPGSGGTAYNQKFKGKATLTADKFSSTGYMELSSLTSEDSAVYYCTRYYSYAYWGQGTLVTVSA VL: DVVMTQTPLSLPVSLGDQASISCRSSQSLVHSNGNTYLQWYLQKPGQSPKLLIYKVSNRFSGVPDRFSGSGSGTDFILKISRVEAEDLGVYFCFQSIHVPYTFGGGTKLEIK	9.37
52H5D3B8-6#-VH1+VL2 (antibody, V domains shown, humanized) VH: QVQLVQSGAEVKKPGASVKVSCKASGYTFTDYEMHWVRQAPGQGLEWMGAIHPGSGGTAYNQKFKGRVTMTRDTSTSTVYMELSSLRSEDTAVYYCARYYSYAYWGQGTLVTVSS VL: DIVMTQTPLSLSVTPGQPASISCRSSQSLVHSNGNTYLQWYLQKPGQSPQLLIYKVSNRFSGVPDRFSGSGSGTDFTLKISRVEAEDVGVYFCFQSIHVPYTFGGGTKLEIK	8.70
